# protocol.description: protein stability index of a GFP-peptide fusion (GPS, HEK-293T) (PSI 1-6); higher = more stable;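 also: 24-mer peptide tiles fused after GFP, lentivirally expressed, FACS-sorted into six equal bins by GFP/DsRed ratio, decoded by Illumina sequencing, PSI is the read-weighted mean bin number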
# assay.conditions: treatment: MLN4924 1 uM, 8 h; c terminus: a fixed tail appended
Reported protein stability index values are given for each entry in this list.
Number, no unit, nothing else.

Consider the following illustrative entries.
ordered.residues	protein stability index
ARKARKYEIPHFRLKKVENIKIWL [PHTF1]	1.96
IPIHGKGNFPTMEVKPKDIIHVVK [TENT5D]	2.93
VAVNNIGRGPPSEPVLTQTSEQAP [PTPRD]	5.02
EKYSVATQLFIGGVTGWCTGFIFQ [FUNDC2]	3.06
SAKLAPHYFHSISYKIEEISPSTL [KCNK9]	2.31

Incoming: Give the measured protein stability index of KKDTGHIYAMKILRKSDMLEKEQV [STK38L] .
Outgoing: 3.54

Incoming: Similarly, PSSQKALLLELKGLQEEPVEGFRV [CDC34] ?
Outgoing: 3.47

Incoming: Entry SKARTKSLLGDDVFSTMAGLEEAD [FBF1] please
Outgoing: 5.05

Incoming: Request: EHSHRSHHSLASSLRSHHTHPSYG [DVL3]
Outgoing: 3.56
